Data origin: the supplement of paper PMC9170038

Test system: MS2 coat protein
Assay: apparent KD of MS2 coat protein; designed switch direction (-1 OFF switch, 1 ON switch): -1; higher = weaker reporter binding
Conditions: input ligand: microRNA oligo, concentration not stated
value-type: apparent KD of MS2 coat protein (nM)
Only the number, expressed in nM, is required.

Report apparent KD of MS2 coat protein for CUUCUCAAAGGAUAUCACGGUAAUAACAUGAGGAUCACCCAUGUGCAAUUCGUGUCCCUGUGAGAAGGUUGAGAAG [Remaor] (Eterna round: R96, puzzle: Exclusion 5) please. 11.1

// same read-out, input: GGAUAUAAGUCAGGAUAUGAGCGCAACUGACGAUCAGAAGGGACACAUGAGGAUCACCCAUGUGAUCUAUCAAUAUUAUACAUG [Prohibition 93 - Jieux - Exclusion NG 1] (Eterna round: R96, puzzle: Exclusion NG 1) 19

----------
System: MS2 coat protein
Assay: apparent KD of MS2 coat protein; designed switch direction (-1 OFF switch, 1 ON switch): 1; higher = weaker reporter binding
Settings: Eterna round: R95; input ligand: none
apparent KD of MS2 coat protein values by entry
Give a bare numeral; the unit nM is implied.

1) GGAGCCGGUACUGAGGAUAUUCGUAUUAAAACAUGAGGAUCACCCAUGUAGGCCAGAAGGCCUUGGGAGAAGGCAGACCAGCUCG [Atgexeedri - 5] (puzzle: Same State 2) ... 40.5

# returns recorded apparent KD of MS2 coat protein (system: MS2 coat protein) for CCCAUGAAUAGUCAGGAUAUACGAUUUUAUACAUGAGGAUCACCCAUGUUAAGACUCCUCAAUAAGUAGAAGGGACUAUUUAUAA [Tesla Same State 2] (puzzle: Same State 2) 103

Continue with GGGAAGAGGGACAAGGAUAUGUCAAAAGAGACAUGAGGAUCACCCAUGUGGAGGUUGGAGCAGAGACAGAAGGUGUACGGAGAGA [JR_SS2_Sub009] (puzzle: Same State 2) 152

----------
Test system: K4 kissing-loop RNA reporter;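 note: bound reporter read as fluorescence of individual clusters on recovered sequencing chips by microscopy, with normalized cluster intensities fitted with a binding model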
Test: apparent KD of K4 kissing-loop reporter; higher = weaker reporter binding
Settings: Eterna round: R107; input ligand: theophylline 20 uM
value-type: apparent KD of K4 kissing-loop reporter
Enter the number, and then the unit.

Answered examples (3):
1. UGUACCGAGUCAGGAUAUGGCGUCGAAAGACGAAUUCUAGUGAUGUUAGGGAUCUGCGAAAGCAGUCUAGAAGGGACUUGGUACU [FmnBS 26 U36+U68] ... 0.684 µM
2. UGAUUGCCAGUGAUGUUGGCAGUGACUGAAGGAGCGCGUGAAAACGCAGGUAGGUCGCAGUUGAGUGCCAAUUGAUCGAAAGAUC [KL-XArg-A5] ... 0.328 µM
3. UGUGUUGUUUUGAUGUUUGGUGUAAGUUGGCAGGAUAUCGUAGAGGCGAGAAGGGCUUUUAUGCGUUAUGAGUGAUGUUUGUAGG [zrrzmullin] ... 0.404 µM

Any idea what apparent KD of K4 kissing-loop reporter was measured for UGGAUAUAGUGAUGUUAUAUAGAGAGUGAUACCAGUUUAGAGAAGAACCCUUGGCAGCAUAGAAGAGUAUCAUUGGAGAAGAAUG [ExTheophyl.Aq] ? 0.181 µM

Param item: UCUUGUUCAUAGUGAUGUUAUGAGCUUAGAAAGGAUAUGAUCAACAUCAGAAGGUUCAAGGAUUCCCGACUCCAACUUCGGUUUC [theeternabot_sameState_KL_FMN_A_43] 0.339 µM

----------
Tested on: MS2 coat protein
Assay: apparent KD of MS2 coat protein; designed switch direction (-1 OFF switch, 1 ON switch): 1; higher = weaker reporter binding
Details: input ligand: FMN 200 uM
value-type: apparent KD of MS2 coat protein

Example cases with answers are listed next.
1) CGUCGUUUGUUAGGAUAUCGCUAUACAUGAGGAUCACCCAUGUUUACCACGCUGGUUUUUCAUACCGAGAAGGAUUCUGAUGUU [salish99_SSNG02_r04_019] (Eterna round: R96, puzzle: Same State NG 2) ... 42.5 nM
2) UGUUGUUAAUUAGGAUAUGGUCACAUGAGGAUCACCCAUGUAAUGUCGAUGCUAUGUGGAUCCGAUCAGAAGGAAUGGCUAACA [SameState NG2 #95] (Eterna round: R96, puzzle: Same State NG 2) ... 201 nM
3) CCUGCAAUUAACGCCUACAUGAGGAUCACCCAUGUAUGUAGGCAGGAUAUCGUUUGCUUUGCAAACGAGAAGGGCUGUAGUAGC [salish99_SSNG3_R04_002] (Eterna round: R96, puzzle: Same State NG 3) ... 18.7 nM
4) ACAAGCUUUUCUGUAUUGAAAGGUGGGAUACAUGAGGAUCACCCAUGUUUUUUUGUUUAUUUUUUUCCUCGUCUUAU [JR_SHM208A_Sub088] (Eterna round: R96, puzzle: Sensor for hsa-mir-208a) ... 46 nM
5) GCGGUCUGACAUGAGGAUCACCCAUGUGGAAUAAAUACGGGUUAGGAUAUCUUGAGGAUCACCCAAGAGAAGGGAUGGACCGCU (Eterna round: R96, puzzle: Same State NG 3) ... 32.1 nM
6) UAUCUCAUGUAAGGAUAUGCAGCCGUUUCGGCUGCAGAAGGUACUAUAAUACAUGAGGAUCACCCAUGUCUCUCGCAUUGCGAG [JL SSNG1 1.49] (Eterna round: R96, puzzle: Same State NG 1) ... 186 nM
7) AAGGGAUGAGCGUAGGAUAUAGGAGAAGUGACAUGAGGAUCACCCAUGUAAAAGGAGGGAUGAGACUAGAAGGACGAGGUAGGAG [JR_SS2_Sub059] (Eterna round: R96, puzzle: Same State 2) ... 82.7 nM
8) GUCGGUCUGUCGUGCUGUGGUGAUAGUUAACAUGAGGAUCACCCAUGUUGCUUUCGGGUCGUUGGGAGUUUUUUUCG [Modxample 121 - Jieux - Sensor for bsa-mir-208a] (Eterna round: R96, puzzle: Sensor for hsa-mir-208a) ... 63.1 nM

Reported apparent KD of MS2 coat protein for GCCGCGUUUCGCGCCUACAUGAGGAUCACCCAUGUUUGUAGGCAGGAUAUCGUCCGCUCUGCGGGCGAGAAGGGCUGUUGUGGU [salish99_SSNG3_R04_024] (Eterna round: R96, puzzle: Same State NG 3) : what is it? 65.6 nM

----------
Tested on: MS2 coat protein
Experiment: apparent KD of MS2 coat protein; designed switch direction (-1 OFF switch, 1 ON switch): -1; higher = weaker reporter binding
Details: input ligand: FMN 200 uM
Below, each entry is listed with its recorded apparent KD of MS2 coat protein.
Give your result in nM as a bare value.

Worked cases, apparent KD of MS2 coat protein given:
1) UUGUGCACGCUGCGAUCCUACAUGAGGAUCACCCAUGUGGUCUGGUGGCGUGGGUCACCGGACUUGGCUCGUCUUGC [salish99_S_TOV1_R5_073] (Eterna round: R97, puzzle: Sensor, turn-off variant 1) ... 28.8
2) CGGUGUAACGCAGGAUAUCAUCGCAACUGACGUUGAGAAGGGCGACAUGAGGAUCACCCAUGUGAUUUCUCAAUAUUAUACAUC [Prohibition 84 - Jieux - Exclusion NG 1] (Eterna round: R96, puzzle: Exclusion NG 1) ... 212
3) UCAUGUCCAGAGGAUAUGUAGCGGAUAAACGCAACAGAAGGCUGGACAUGAGGAUCACCCAUGUGUGCCUUCUA [Exclusion 6 Mod3 of JL of Mod of Letion by ViennaUCT] (Eterna round: R97, puzzle: Exclusion 6) ... 81.3

Then this sequence:
Form field - read-out: apparent KD of MS2 coat protein; system: MS2 coat protein; submitted item: CCAUAGUCAGGAUAUACAUGAGGAUCACCCAUGUAAAAUUUUAAUUUAAUUUGAAGGUGUAGAAGGGACCAACC [Ex3 #30] (Eterna round: R97, puzzle: Exclusion 3) 26.3

----------
Tested on: MS2 coat protein
Assay: apparent KD of MS2 coat protein; higher = weaker reporter binding
Conditions: Eterna round: R107; input ligand: arginine 13.2 mM
Label TRUE for high-side apparent KD of MS2 coat protein (at or above 30 nM) and FALSE for low-side apparent KD of MS2 coat protein (below it).

These recorded examples may help you get a feel for the data.
1) UUUUUUUUUUACAUGAGGAUCACCCAUGUUCGAGGACCGGUACGGCCGCCACUCGUUUUUGUUGUGGUAGGGUUAGGGUUAGGGU [Turkey Lurky] ... FALSE
2) GGUGGGACUUGUGAUACCAGCCCAAUUCGAAUCGAAUUGCACAUGAGGAUCACCCAUGUCGGCCCUUGGCAGCAUGAGUAUUUAU [Ricerixe] ... TRUE

Evaluate GGUUACUCUACGGCCGCCACUGAACAUGAGGAUCACCCAUGUAAUGUUCAGUAGUCUUUAGACAACAGGACCGGGUAGUGUAACC [Tryptophan B 6] : apparent KD of MS2 coat protein at minimum 30 nM? TRUE

Same thing, different sequence: GGGUGGUAGGCGGCCGCCACUGAUUUUCAUUUAUAGAUGACAUGAGGAUCACCCAUGUUUAUGUGCAGGACCGGGCCUGUUGUGG [aaaS] TRUE

Another: UCUUUCUUUGUAGAUACCAGCAUGUUAAGUUUCUUUUGACAUGAGGAUCACCCAUGUACAUGCCCUUGGCAGCUACAUUUUCUUU [SSThB NP+V+V2 Same Structure] FALSE

Likewise for AGGUGCUGAUCGGCCGCCACUGAGAGGACGUGAACUUUAGCUGGUUACAUGAGGAUCACCCAUGUCAGGACCGGGAUUAGUUUGC [Quleorla] ? FALSE

# repeat for GUCCACAUGAGGAUCACCCAUGUAAGUGGGCGAGGACCGGUACGGCCGCCACUCGACAUGUUGACGAAAAGUCAGCAUGAGGACA [#SwitchBubble 3 #GuTurnoff #Tail] TRUE

Queued: AGAGCAUUGACGGCCGCCACUCAUGUCACAUGAGGAUCACCCAUGUGAUGGGUAAUUGCCCGGUUGAGGACCGGGUCAAUGCUCA [Omei Tryp SS B v4] FALSE
